I'd be grateful if you could share measured pIC50 for these entries.
Molecular target: Replicase polyprotein 1ab (Severe acute respiratory syndrome coronavirus 2, UniProt P0DTD1)
Settings: read-out: IC50
The value called pIC50 is obtained by taking minus log10 of the concentration in mol/L.

Q: Consider the compound S=C(NCc1cccnc1)SCc1ccccc1 and give its measured pIC50.
A: 7.64

Q: Consider the compound Cc1cccc2nc(CNC(=S)NCc3cccnc3)cn12 and give its measured pIC50.
A: 4.46

Q: Consider the compound Cc1cccc2nc(CSC(=S)NCc3cccnc3)cn12 and give its measured pIC50.
A: 7.68

Q: Consider the compound CCSC(=S)NCc1cccnc1 and give its measured pIC50.
A: 6.75
